Biological target: human insulin receptor (HIR) (human, UniProt P06213)
Assay: competition
pKd: −log10 of the molar value.
RECORDED_METRIC: pKd

# lookup: pKd of GSLDESFYDWFER [S396]
< 4.70
